pIC50, Proto-oncogene tyrosine-protein kinase Src (Homo sapiens, UniProt P12931): measured values
pIC50: −log10 of the molar value.
measurement name: pIC50

CN1CCN(Cc2cc(-c3cc4ncc(C#N)c(Nc5ccc(Cl)cc5Cl)c4s3)cs2)CC1 | 7.17

A: COc1cc(Nc2c(C#N)cnc3cc(-c4ccc(CN5CCSCC5)cc4)sc23)c(Cl)cc1Cl
B: COc1cc(Nc2c(C#N)cnc3cc(-c4ccc(C(=O)N5CCN(C)CC5)cc4)sc23)c(Cl)cc1Cl
C: COc1cc(Nc2c(C#N)cnc3cc(-c4ccsc4CN4CCN(C)CC4)sc23)c(Cl)cc1Cl
D: CN1CCN(Cc2ccc(-c3cc4ncc(C#N)c(Nc5ccc(Oc6ccccc6)cc5)c4s3)cc2)CC1
E: COc1cc(Nc2c(C#N)cnc3cc(-c4ccc(CN5CCN(CCO)CC5)cc4)sc23)c(Cl)cc1Cl
Please list the entries, largest pIC50 first. Present the labels in the sequence the task asks for.
E, B, A, D, C
(E: 8.13, B: 7.89, A: 7.28, D: 6.85, C: 6.38)

###

assay: Plasma concentration upon oral dose at 50 mg/kg in mouse after 4 hours; assay type: ADME, organism-based; parameters: dose 50 mg/kg, route oral
measurement name: concentration at 4 h (ng/mL)

# annotated cases, reported concentration at 4 h shown
COc1cc(Nc2c(C#N)cnc3cc(-c4ccc(CN5CCN(CCO)CC5)cc4)sc23)c(Cl)cc1Cl | 1700
COc1cc(Nc2c(C#N)cnc3cc(-c4ccc(C(=O)N5CCN(C)CC5)cc4)sc23)c(Cl)cc1Cl | 1600
COc1cc(Nc2c(C#N)cnc3cc(-c4ccc(CN(C)C)cc4)sc23)c(Cl)cc1Cl | 200
COc1cc(Nc2c(C#N)cnc3cc(-c4ccc(CN5CCNCC5)cc4)sc23)c(Cl)cc1Cl | 1100

I: COc1cc(Nc2c(C#N)cnc3cc(-c4csc(CN5CCN(C)CC5)c4)sc23)c(Cl)cc1Cl
II: COc1cc(Nc2c(C#N)cnc3cc(-c4ccc(CN5CCN(C)CC5)cc4)sc23)c(Cl)cc1Cl
Kindly identify which of I and II has the larger recorded concentration at 4 h value. Indicate which entry you chose by stating its label.
II
(II: 2200 ng/mL, I: 1000 ng/mL)

###

assay: Plasma concentration upon oral dose at 50 mg/kg in mouse after 24 hours; assay type: ADME, organism-based; parameters: dose 50 mg/kg, route oral
measurement name: concentration at 24 h (µg/mL)

# annotated cases, reported concentration at 24 h shown
COc1cc(Nc2c(C#N)cnc3cc(-c4ccc(CN5CCN(CCO)CC5)cc4)sc23)c(Cl)cc1Cl | 0.069
COc1cc(Nc2c(C#N)cnc3cc(-c4ccc(CN5CCN(C)CC5)cc4)sc23)c(Cl)cc1Cl | 0.4

A: COc1cc(Nc2c(C#N)cnc3cc(-c4csc(CN5CCN(C)CC5)c4)sc23)c(Cl)cc1Cl
B: COc1cc(Nc2c(C#N)cnc3cc(-c4ccc(CN5CCNCC5)cc4)sc23)c(Cl)cc1Cl
C: COc1cc(Nc2c(C#N)cnc3cc(-c4ccc(C(=O)N5CCN(C)CC5)cc4)sc23)c(Cl)cc1Cl
D: COc1cc(Nc2c(C#N)cnc3cc(-c4ccc(CN(C)C)cc4)sc23)c(Cl)cc1Cl
Please list the entries, largest concentration at 24 h first. Present the labels in the sequence the task asks for.
A, C, B, D
(A: 0.32 µg/mL, C: 0.059 µg/mL, B: 0.003 µg/mL, D: 0.002 µg/mL)
